target or test system: T1, Macaca fascicularis PDGFRb.mmh (Macaca fascicularis)
T1 construct: Soluble monomeric construct; also called mfPDGFRb.mmh
T1 chain: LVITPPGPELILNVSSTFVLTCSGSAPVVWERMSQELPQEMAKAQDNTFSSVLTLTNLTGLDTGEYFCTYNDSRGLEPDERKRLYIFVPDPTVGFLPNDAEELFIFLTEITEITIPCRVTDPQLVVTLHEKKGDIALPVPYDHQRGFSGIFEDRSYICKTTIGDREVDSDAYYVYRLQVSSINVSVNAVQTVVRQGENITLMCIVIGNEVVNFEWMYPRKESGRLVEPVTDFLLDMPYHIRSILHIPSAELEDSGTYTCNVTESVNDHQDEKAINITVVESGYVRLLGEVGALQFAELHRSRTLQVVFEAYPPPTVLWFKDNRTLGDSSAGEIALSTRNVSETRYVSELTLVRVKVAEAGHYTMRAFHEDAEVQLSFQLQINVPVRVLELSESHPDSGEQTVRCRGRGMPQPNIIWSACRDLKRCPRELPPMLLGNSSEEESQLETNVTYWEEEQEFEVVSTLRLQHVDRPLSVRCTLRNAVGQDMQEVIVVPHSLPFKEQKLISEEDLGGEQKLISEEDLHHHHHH
test details: SPR, mAb captured, 25 C
endpoint name: t1/2
Give me the value, and tack the unit on after it.

Reference set, count: 2
binder	t1/2
H4H3106S (antibody, human IgG4, V domains shown, human IgG4 Fc (H4H prefix)) VH: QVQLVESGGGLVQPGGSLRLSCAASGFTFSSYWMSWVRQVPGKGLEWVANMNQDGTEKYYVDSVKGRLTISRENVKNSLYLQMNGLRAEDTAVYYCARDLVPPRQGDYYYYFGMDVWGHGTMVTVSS VL: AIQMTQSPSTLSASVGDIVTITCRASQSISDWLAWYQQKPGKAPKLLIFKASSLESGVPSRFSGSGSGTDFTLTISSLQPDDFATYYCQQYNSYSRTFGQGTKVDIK	13 min
H2M3373N (antibody, V domains shown, mouse Fc (H2M prefix; isotype not spelled out)) VH: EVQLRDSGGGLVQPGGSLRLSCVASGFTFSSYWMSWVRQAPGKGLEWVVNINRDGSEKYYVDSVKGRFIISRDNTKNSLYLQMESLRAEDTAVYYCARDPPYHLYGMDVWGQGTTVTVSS VL: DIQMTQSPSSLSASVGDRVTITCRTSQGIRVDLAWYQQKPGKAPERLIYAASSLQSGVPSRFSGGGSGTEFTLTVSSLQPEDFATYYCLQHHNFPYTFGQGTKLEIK	5 min

Kindly review the next binder as well.
Sample H4H3102S (antibody, human IgG4, V domains shown, human IgG4 Fc (H4H prefix)) VH: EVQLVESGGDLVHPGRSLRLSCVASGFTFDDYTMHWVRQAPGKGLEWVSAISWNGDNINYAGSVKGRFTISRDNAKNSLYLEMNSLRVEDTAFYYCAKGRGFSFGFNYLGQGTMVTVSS VL: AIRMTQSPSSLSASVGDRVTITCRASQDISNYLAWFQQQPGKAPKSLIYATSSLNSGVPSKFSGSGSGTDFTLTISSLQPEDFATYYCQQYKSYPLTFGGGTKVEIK ; t1/2 observed: 24 min
